Ref: ChEMBL document CHEMBL1139887

This listing pairs molecules with measured IC50.
- System: A2780
- experimentDescription: Cytotoxicity against human A2780 cells
- Type: cell-based
measuredAttribute: IC50

- COc1cc(O[C@@H]2O[C@H](CO)[C@@H](O)[C@H](O)[C@H]2O)ccc1O[C@@H]1O[C@H](CO)[C@@H](O)[C@H](O)[C@H]1O: > 5 µM
- COc1cc(O[C@@H]2O[C@H](CO)[C@@H](O)[C@H](O)[C@H]2O)cc(OC)c1O[C@@H]1O[C@H](CO)[C@@H](O)[C@H](O)[C@H]1O: > 5 µM
- OC[C@@]1(O)CO[C@@H](OC[C@H]2O[C@@H](OCCc3ccc(O)c(O)c3)[C@H](O)[C@@H](O)[C@@H]2O)[C@@H]1O: > 5 µM
